Cited source: ChEMBL document CHEMBL1806407

Target chain: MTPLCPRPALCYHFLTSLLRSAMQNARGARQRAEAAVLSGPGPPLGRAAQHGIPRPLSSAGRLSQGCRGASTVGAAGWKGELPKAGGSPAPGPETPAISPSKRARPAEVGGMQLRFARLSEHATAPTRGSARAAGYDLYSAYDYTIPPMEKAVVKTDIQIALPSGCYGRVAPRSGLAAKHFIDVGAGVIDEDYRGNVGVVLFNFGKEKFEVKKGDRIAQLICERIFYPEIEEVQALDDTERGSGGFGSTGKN
Measured Quantity: Ki (µM)
Answers are plain numbers, in µM.

Data request: Looking for the measured Ki of "O=c1ccn([C@H]2C=C[C@@H](COC(c3ccccc3)(c3ccccc3)c3ccccc3)O2)c(=O)[nH]1" , can you help?
Data returned: 157

----------
- Target Of Assay: dUTP pyrophosphatase (Plasmodium falciparum 3D7, UniProt Q8II92, K96A)
- Sequence (Q8II92 whole entry K96A): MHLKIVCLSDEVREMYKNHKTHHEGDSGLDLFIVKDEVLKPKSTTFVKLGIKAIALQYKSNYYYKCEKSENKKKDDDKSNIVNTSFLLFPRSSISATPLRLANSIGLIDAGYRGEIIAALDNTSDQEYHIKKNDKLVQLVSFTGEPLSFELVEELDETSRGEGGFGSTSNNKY
- Protocol Text: Inhibition of recombinant Plasmodium falciparum dUTPase K96A mutant expressed in Escherichia coli BL21(DE3) cells using dUTP as substrate by spectrophotometric analysis
pKi: −log10 of the molar value.
Is pKi at least 7? Then TRUE. If not, FALSE.

Please review the entries below; each comes with its answer.
# Molecule, Cat
data = [
    ("CC(C)(C)[Si](OC[C@@H]1C=C[C@H](n2ccc(=O)[nH]c2=O)O1)(c1ccccc1)c1ccccc1", "FALSE"),
    ("O=c1ccn(CCCNC(c2ccccc2)(c2ccccc2)c2ccccc2)c(=O)[nH]1", "TRUE"),
    ("O=c1ccn([C@H]2C[C@H](F)[C@@H](COC(c3ccccc3)(c3ccccc3)c3ccccc3)O2)c(=O)[nH]1", "FALSE"),
]

Data request: Kindly determine if pKi recorded for "O=c1ccn([C@H]2C=C[C@@H](COC(c3ccccc3)(c3ccccc3)c3ccccc3)O2)c(=O)[nH]1" is above or exactly 7.
Data returned: FALSE

Data request: Kindly determine if pKi recorded for O=c1ccn(CCC(CO)CNC(c2ccccc2)(c2ccccc2)c2ccccc2)c(=O)[nH]1 (stereo not drawn) is above or exactly 7.
Data returned: TRUE

----------
- Target Of Assay: dUTP pyrophosphatase (Plasmodium falciparum 3D7, UniProt Q8II92, F46A)
- Sequence (Q8II92 whole entry F46A): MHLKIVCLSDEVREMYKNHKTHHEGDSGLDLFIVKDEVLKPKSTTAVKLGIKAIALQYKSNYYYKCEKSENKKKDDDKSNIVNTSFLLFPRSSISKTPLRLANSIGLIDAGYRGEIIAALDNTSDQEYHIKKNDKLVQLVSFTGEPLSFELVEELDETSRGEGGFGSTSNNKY
- Protocol Text: Inhibition of recombinant Plasmodium falciparum dUTPase F46A mutant expressed in Escherichia coli BL21(DE3) cells using dUTP as substrate by spectrophotometric analysis
Measured Quantity: pKi
Answers are plain numbers, as −log10 of the molar value.

Example entries begin here.
# Compound, pKi
rows = [
    ("O=c1ccn(CCCNC(c2ccccc2)(c2ccccc2)c2ccccc2)c(=O)[nH]1", 4.55),
    ("O=c1ccn(C/C=C/COC(c2ccccc2)(c2ccccc2)c2ccccc2)c(=O)[nH]1", 5.22),
    ("O=c1ccn(COCCOC(c2ccccc2)(c2ccccc2)c2ccccc2)c(=O)[nH]1", 4.89),
]

List the reported pKi of each compound below.
1. O=c1ccn([C@H]2C=C[C@@H](COC(c3ccccc3)(c3ccccc3)c3ccccc3)O2)c(=O)[nH]1
2. O=c1ccn(CCC(CO)CNC(c2ccccc2)(c2ccccc2)c2ccccc2)c(=O)[nH]1 (centres undefined)
3. O=c1ccn([C@H]2C[C@H](F)[C@@H](COC(c3ccccc3)(c3ccccc3)c3ccccc3)O2)c(=O)[nH]1
4. O=c1ccn([C@H]2C[C@H](O)[C@@H](CNC(c3ccccc3)(c3ccccc3)c3ccccc3)O2)c(=O)[nH]1
5. CC(C)(C)[Si](OC[C@@H]1C=C[C@H](n2ccc(=O)[nH]c2=O)O1)(c1ccccc1)c1ccccc1
6. O=c1ccn(CCCCCCNC(c2ccccc2)(c2ccccc2)c2ccccc2)c(=O)[nH]1

Data returned:
[4.69, 4.54, 3.65, 4.70, 4.77, 4.46]
